CCRF-CEM phagocytosis, Phagocytosis (%) values, listed per item
# measuredOn: human CD47 on cells (SHP-77 tumor cells, human red blood cells, CCRF-CEM cells, human CD47 CHO-K1 stable cell … (human, UniProt Q08722 19-323))
# procedureText: cell-based or functional assay
Write the answer as a number in %, unit excluded.

- binder: "108VH10.Mk / 108VL10.Me (antibody, V domains shown, 4D5-framework series; also called VH10.Mk VL10.Me) VH: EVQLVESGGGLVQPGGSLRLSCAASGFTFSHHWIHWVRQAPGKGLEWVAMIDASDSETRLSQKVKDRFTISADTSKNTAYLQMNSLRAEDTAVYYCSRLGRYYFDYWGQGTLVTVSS VL: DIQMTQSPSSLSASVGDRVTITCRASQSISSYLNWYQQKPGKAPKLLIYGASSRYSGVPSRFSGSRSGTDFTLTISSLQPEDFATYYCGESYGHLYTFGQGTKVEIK"
  unitDescriptor: "%"
  CCRF-CEM phagocytosis, Phagocytosis (%): 57.6
- binder: "108VH5.M22 / 108VL1.M5 (antibody, human IgG4 S228P, kappa, V domains shown, Full-length IgG4 (S228P), kappa; also called VH5.M22 VL1.M5) VH: EVQLVQSGAEVKKPGASVKVSCKASGYTFTHHWMHWVRQAPGQGLEWMGMIDASDIETRYAQKFQGRVTMTRDTSTSTVYMELSSLRSEDTAVYYCARLGRYYFDYWGQGTLVTVSS VL: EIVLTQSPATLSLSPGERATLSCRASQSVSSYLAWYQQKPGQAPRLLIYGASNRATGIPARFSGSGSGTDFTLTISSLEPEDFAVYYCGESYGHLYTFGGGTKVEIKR"
  unitDescriptor: "%"
  CCRF-CEM phagocytosis, Phagocytosis (%): 59.4

// next item, CCRF-CEM phagocytosis, Phagocytosis (%) requested
query: Which CCRF-CEM phagocytosis, Phagocytosis (%) value belongs to 108VH10.Mr / 108VL10.Me (antibody, V domains shown, 4D5-framework series; constant regions not restated for this series; also called VH10.Mr VL10.Me) VH: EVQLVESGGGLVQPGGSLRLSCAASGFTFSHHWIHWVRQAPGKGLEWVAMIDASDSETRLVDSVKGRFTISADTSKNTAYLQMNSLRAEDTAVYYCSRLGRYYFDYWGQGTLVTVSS VL: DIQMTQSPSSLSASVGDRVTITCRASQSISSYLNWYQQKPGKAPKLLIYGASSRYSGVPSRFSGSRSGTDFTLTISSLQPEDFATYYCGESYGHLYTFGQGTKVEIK ?
result: 49.8
